# condition.description: mouse; in vivo; iv; 0.5 mg/kg
quantity.kind: AUC(0-t) (ng·h/mL)
Just the number please, in ng·h/mL, no unit attached.

Form field: reported AUC(0-t) of COC1(C(=O)Nc2cncc3ccc(S(C)(=O)=O)cc23)CCOc2ccc(Cl)cc21 (stereo unspecified)
50.3

* * *

# experimental.target: UniProt:P0DTD1
Measured pIC50 values are reported for all entries that follow.
Keep it numeric: pIC50 is minus log10 of the concentration in mol/L.

Example entries begin here.
1) CC(C)NC(=O)CN1CC(C(=O)Nc2cncc3ccccc23)c2cc(Cl)ccc2C1=O (centres undefined) = 6.41
2) O=C(Cc1cccc(Cl)c1)Nc1cnc2ccccn12 = 5.10
3) CNC(=O)c1ccc2cncc(NC(=O)C3CN(S(=O)(=O)CC4(C#N)CC4)Cc4ccc(Cl)cc43)c2c1 (centres undefined) = 6.94

Which measured pIC50 belongs to CS(=O)(=O)Nc1cccc(C2=NN(C(=O)CCl)C(c3ccccc3)C2)c1 (centres undefined) , tested on UniProt:P0DTD1?
5.23

Fill in the recorded pIC50 for this molecule, with UniProt:P0DTD1 as test system: CS(=O)(=O)c1ccc2c(NC(=O)C3CN(CC(=O)NC4CCC4)C(=O)c4ccc(Cl)cc43)cncc2c1 (centres undefined)
6.60

Query for UniProt:P0DTD1: what pIC50 does the record show for CC(C)(C)OC(=O)NCCCNC(=O)C(c1cccnc1)N(C(=O)c1cocn1)c1ccc(C(C)(C)C)cc1 (centres undefined) ?
5.47

Provide the documented pIC50 with UniProt:P0DTD1 as the system for O=C(Cc1cc(Cl)cc(Nc2ccc(F)c(F)c2Br)c1)Nc1cncc2ccccc12
5.71
